Numbers sourced from patent US20110086759A1.

# Test system: Alopecurus myosuroides (ALOMY)
# protocol: Post-emergence biological efficacy, glasshouse pot test
# Type: in vivo
# reportedConditions: 312 h, post-emergence, 1,000 g/ha, evaluated after 13 days (100=total damage; 0=no damage), read-out: Percentage damage caused to weed species, ALOMY
# Method: Seeds of Alopecurus myosuroides (ALOMY), Setaria faberi (SETFA), Echinochloa crus-galli (ECHCG), Solanum nigrum (SOLNI), Amaranthus retoflexus (AMARE) and Ipomea hederaceae (IPOHE) were sown in standard soil in pots. […] The test plants were then grown on under controlled conditions in a glasshouse (at 24/16° C., day/night; 14 hours light; 65% humidity) and watered twice daily. After 13 days the test was evaluated (100=total damage to plant; 0=no damage to plant).
Recorded pest or weed control at 1000 g/ha, one value per entry.
Report as a plain number; the unit % is understood.

Solved cases below.
**Query** Indicate the recorded pest or weed control at 1000 g/ha value for this compound: "COC(=O)c1nc(C2CC2)nc(NC2(/C=C/c3cccc(Cl)c3)CC2)c1Cl"
**Result** 10

**Query** Kindly indicate its recorded pest or weed control at 1000 g/ha. Item: "COC(=O)c1nc(C2CC2)nc(NC2(/C=C/c3ccc(Cl)cc3)CC2)c1Cl"
**Result** 20

**Query** Give the reported pest or weed control at 1000 g/ha for this compound. COC(=O)c1nc(C2CC2)nc(NCC(C)c2ccccc2)c1Cl (centres unmarked)
**Result** 20

**Query** Give a short answer stating reported pest or weed control at 1000 g/ha for COC(=O)c1nc(C2CC2)nc(N[C@@H](C)c2cccc(OC)c2)c1Cl [4-180 (S)] .
**Result** 20

**Query** Return reported pest or weed control at 1000 g/ha. Input compound: COC(=O)c1nc(C2CC2)nc(N[C@@H](C)C2CCCCC2)c1Cl [4-173 (S)]
**Result** 0

**Query** Identify measured pest or weed control at 1000 g/ha associated with "COC(=O)c1nc(C2CC2)nc(NCc2c(Cl)cccc2Cl)c1Cl"
**Result** 20

**Query** Return value of pest or weed control at 1000 g/ha for input "COC(=O)c1nc(C2CC2)nc(NCc2cc(C(F)(F)F)cc(C(F)(F)F)c2)c1Cl" , no commentary.
**Result** 10

Further cases:
**Query** Provide measured pest or weed control at 1000 g/ha value, entry: COC(=O)c1nc(C2CC2)nc(NC(Cc2ccccc2)c2ccccc2)c1Cl (centres unmarked)
**Result** 10

---

# Test system: Setaria faberi (SETFA)
# protocol: Pre-emergence biological efficacy, glasshouse pot test
# Format: in vivo
# reportedConditions: 312 h, pre-emergence, rate 1,000 g/ha, evaluated after 13 days (100=total damage to plant; 0=no damage), read-out: Percentage damage caused to weed species, SETFA
Could you mark each record Y if its pest or weed control at 1000 g/ha falls strictly under 30%, and N if it equals or exceeds it?

Solved entries (count: 3):
**Query** Find out if reported pest or weed control at 1000 g/ha for "COC(=O)c1nc(-c2ccc(Cl)cc2)nc(NCc2ccco2)c1Cl" is less than 30%
**Result** N

**Query** Lab note: pest or weed control at 1000 g/ha threshold 30%. Does this compound come in strictly under it? "Cc1c(NCC2CC2)nc(C2CC2)nc1OCC(=O)NCC1CC1"
**Result** Y

**Query** Just wondering, is pest or weed control at 1000 g/ha of "COC(=O)c1nc(-c2ccc(C(F)(F)F)cc2)nc(NCc2ccco2)c1Cl" below 30%?
**Result** Y

Continuing:
**Query** Check if pest or weed control at 1000 g/ha falls below 30% for "O=C(O)c1nc(-c2ccc(Cl)cc2)nc(NCc2ccco2)c1Cl" .
**Result** N

---

# System: Amaranthus retoflexus (AMARE)
# protocol: Pre-emergence biological efficacy, glasshouse pot test
# Format: in vivo
# reportedConditions: Amaranthus retroflexus, 312 h; pre-emergence, 1,000 g/ha, evaluated after 13 days (100=total damage; 0=no damage); read-out: Percentage damage AMARE
pest or weed control at 1000 g/ha overview
Answer format: numeric, % implied, no suffix.

Example cases with answers are listed next.
**Query** Give recorded pest or weed control at 1000 g/ha. "COC(=O)c1nc(C2CC2)nc(Nc2ccccc2)c1Cl"
**Result** 60

**Query** Hello, please tell me recorded pest or weed control at 1000 g/ha for this one: "COC(=O)c1nc(C2CC2)nc(NCC2CCCCCCC2)c1Cl"
**Result** 40

**Query** Could you please provide reported pest or weed control at 1000 g/ha for COC(=O)c1nc(C2CC2)nc(NC(CO)c2ccccc2)c1Cl (stereo not drawn) ? Thanks!
**Result** 100

**Query** Supply pest or weed control at 1000 g/ha value. Item: "COC(=O)c1nc(C2CC2)nc(NCc2ccc(C)cc2)c1Cl"
**Result** 70

**Query** Read the entry "COC(=O)c1nc(C2CC2)nc(NCc2ccncc2)c1Cl" and write its reported pest or weed control at 1000 g/ha.
**Result** 70

New cases:
**Query** Give the value of pest or weed control at 1000 g/ha reported for the following: "COC(=O)c1nc(C2CC2)nc(NCCc2ccccn2)c1Cl"
**Result** 70

**Query** Supply recorded pest or weed control at 1000 g/ha for COC(=O)c1nc(C2CC2)nc(N[C@H]2CCCC[C@@H]2O)c1Cl (relative stereo) [4-36 (trans)] here.
**Result** 80

**Query** Respond only with pest or weed control at 1000 g/ha recorded for "COC(=O)c1nc(C2CC2)nc(NCc2cc(C(F)(F)F)cc(C(F)(F)F)c2)c1Cl"
**Result** 40

**Query** Tell me its pest or weed control at 1000 g/ha given COC(=O)c1nc(C2CC2)nc(NCC2CCCO2)c1Cl (stereo not drawn) as the entry.
**Result** 60

---

# System: Amaranthus retoflexus (AMARE)
# protocol: Pre-emergence biological efficacy, glasshouse pot test
# Assay type: in vivo
# reportedConditions: Amaranthus retroflexus, 312 h; pre-emergence, 1,000 g/ha, evaluated after 13 days (100=total damage; 0=no damage); read-out: Percentage damage AMARE
Let's look at some compounds and their measured pest or weed control at 1000 g/ha.
# value in %; strip the unit string

Worked set:
**Query** Look up and report measured pest or weed control at 1000 g/ha for this entry: "COC(=O)c1nc(C2CC2)nc(NCc2ccccn2)c1Cl"
**Result** 100

**Query** # return recorded pest or weed control at 1000 g/ha for entry "COC(=O)c1nc(C2CC2)nc(NCc2c(C)cc(Cl)cc2Cl)c1Cl"
**Result** 20

**Query** Note pest or weed control at 1000 g/ha for the compound shown: "COC(=O)c1nc(C2CC2)nc(NCc2ccc(OC)c(OC)c2)c1Cl"
**Result** 70

**Query** Given "COC(=O)c1nc(C2CC2)nc(NC2(/C=C/c3cccc(Cl)c3Cl)CC2)c1Cl" , respond with its pest or weed control at 1000 g/ha.
**Result** 30

Next up:
**Query** Tell me its pest or weed control at 1000 g/ha given "COC(=O)c1nc(C2CC2)nc(NC2(/C=C/c3cccc(Cl)c3)CC2)c1Cl" as the entry.
**Result** 20

---

# Tested on: Alopecurus myosuroides (ALOMY)
# protocol: Pre-emergence biological efficacy, glasshouse pot test
# Assay type: in vivo
# reportedConditions: 312 h, pre-emergence, rate 1,000 g/ha, evaluated after 13 days (100=total damage to plant; 0=no damage), read-out: Percentage damage caused to weed species, ALOMY
reportedEndpoint: pest or weed control at 1000 g/ha (%)
Enter your answer as a number in %; do not include the unit.

**Query** Provide the reported pest or weed control at 1000 g/ha (system: Alopecurus myosuroides (ALOMY)) for "CCN(Cc1ccc(C)o1)c1nc(C2CC2)nc(C(=O)OC)c1Cl"
**Result** 40

**Query** Report pest or weed control at 1000 g/ha from Alopecurus myosuroides (ALOMY) testing of "CCN(Cc1ccc(OC)c(OC)c1)c1nc(C2CC2)nc(C(=O)OC)c1Cl"
**Result** 10

**Query** State recorded pest or weed control at 1000 g/ha with Alopecurus myosuroides (ALOMY), entry "COC(=O)c1nc(-c2ccc(OC)c(Cl)c2)nc(NCc2ccco2)c1Cl" , no comment.
**Result** 0

API: the following record is the query input.
**Query** Consider the compound "C=CCN(Cc1ccc(F)cc1)c1nc(C2CC2)nc(C(=O)OC)c1Cl" tested on Alopecurus myosuroides (ALOMY); state its pest or weed control at 1000 g/ha.
**Result** 0

---

# Tested on: Amaranthus retoflexus (AMARE)
# protocol: Pre-emergence biological efficacy, glasshouse pot test
# Format: in vivo
# reportedConditions: Amaranthus retroflexus, 312 h; pre-emergence, 1,000 g/ha, evaluated after 13 days (100=total damage; 0=no damage); read-out: Percentage damage AMARE
reportedEndpoint: pest or weed control at 1000 g/ha (%)
Note: unit % is implicit; provide only the numeric part.

**Query** # return recorded pest or weed control at 1000 g/ha for entry COC(=O)c1nc(C2CC2)nc(NC(C(=O)OC)c2ccccc2)c1Cl (stereo not drawn) [Compound 4-210]
**Result** 100

**Query** State its pest or weed control at 1000 g/ha for this molecule: COC(=O)c1nc(C2CC2)nc(NCCCCc2ccccc2)c1Cl [Compound 4-253]
**Result** 50

**Query** Provide one value: measured pest or weed control at 1000 g/ha of COC(=O)c1nc(C2CC2)nc(NCC(F)c2ccc(Br)cc2)c1Cl (stereo not drawn) [Compound 4-236]
**Result** 0

**Query** Give the measured pest or weed control at 1000 g/ha for COC(=O)c1nc(C2CC2)nc(NCC(O)COc2ccc(Cl)cc2)c1Cl (stereo not drawn) [Compound 4-264]
**Result** 80

**Query** Return pest or weed control at 1000 g/ha for the following molecule: COC(=O)c1nc(C2CC2)nc(NCC(O)c2ccccc2)c1Cl (stereo not drawn) [Compound 4-257]
**Result** 100

**Query** Give pest or weed control at 1000 g/ha for COC(=O)c1nc(C2CC2)nc(NCc2ccc(OC)cc2OC)c1Cl [Compound 4-110]
**Result** 100

**Query** Provide pest or weed control at 1000 g/ha value for the following molecule: COC(=O)c1nc(C2CC2)nc(NC2(/C=C/c3ccc(F)cc3F)CC2)c1Cl [Compound 4-31]
**Result** 80

**Query** # return recorded pest or weed control at 1000 g/ha for input COC(=O)c1nc(C2CC2)nc(NCc2ccc(OC)cc2)c1Cl [Compound 4-80]
**Result** 90

Now turn to the next molecule.
**Query** Specify reported pest or weed control at 1000 g/ha for the molecule shown: CCC(Nc1nc(C2CC2)nc(C(=O)OC)c1Cl)c1ccccc1 (stereo not drawn) [Compound 4-194]
**Result** 100
